remaining activity at 100 µM values by entry
- measured target: E. coli MurD (Escherichia coli, UniProt P14900)
- Sequence (P14900 whole entry): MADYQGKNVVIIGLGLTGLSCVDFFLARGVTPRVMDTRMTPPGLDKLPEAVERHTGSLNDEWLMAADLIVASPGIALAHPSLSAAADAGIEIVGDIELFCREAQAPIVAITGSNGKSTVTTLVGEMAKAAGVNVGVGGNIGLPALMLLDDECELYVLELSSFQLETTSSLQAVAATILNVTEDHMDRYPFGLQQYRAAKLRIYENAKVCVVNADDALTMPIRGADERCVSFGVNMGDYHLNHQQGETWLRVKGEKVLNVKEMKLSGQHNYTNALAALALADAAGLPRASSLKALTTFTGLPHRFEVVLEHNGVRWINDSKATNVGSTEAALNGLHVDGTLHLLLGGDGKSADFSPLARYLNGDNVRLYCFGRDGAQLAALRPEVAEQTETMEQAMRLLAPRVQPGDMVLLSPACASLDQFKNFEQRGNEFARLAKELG
- protocol: biochemical
- experimental parameters: 0.25 h, Table S1, PKIS screening; read-out: RA [%] at 100 µM MurD
experimental readout: remaining activity at 100 µM (%)

> print(dat)
                                   compound                           measured.target  result.units  recorded.value
1  CN(C)c1cc2c(Nc3ccc4nc(Cc5ccccc5)[nH]c4c3)ncnc2cn1 [GW301888X]  E. coli MurD (Escherichia coli, UniProt P14900)             %              80
2  CS(=O)(=O)CCNCc1ccc(-c2ccc3ncnc(Nc4ccc(OCc5ccccc5)c(C(F)(F)F)c4)c3c2)o1 [GW574782A]  E. coli MurD (Escherichia coli, UniProt P14900)             %              60
3  N#Cc1ccc2c(-c3ccnc(NC4CC4)n3)c(-c3ccc(F)cc3)nn2c1 [GW561436X]  E. coli MurD (Escherichia coli, UniProt P14900)             %              76
4  CC1=C(C(=O)Nc2ccc3[nH]ncc3c2)C(c2ccc(F)cc2)NC(=O)N1 (stereo not shown) [GSK180736A]  E. coli MurD (Escherichia coli, UniProt P14900)             %              79

====

- measured target: UniProt P17952
- protocol: Malachite green inhibition assay, MurC
- Type: biochemical
- experimental parameters: 0.25 h, Table S1, PKIS screening; read-out: RA [%] at 100 µM MurC
experimental readout: remaining activity at 100 µM

> print(dat)
                                    compound  recorded.value
 1  CCn1c(-c2nonc2N)nc2cnc(Oc3cccc(NC(=O)c4ccc(OCCN5CCOCC5)cc4)c3)cc21 [GSK269962B]             57%
 2  C#Cc1cccc(Nc2ncnc3ccc(OCCCCNCCS(C)(=O)=O)cc23)c1 [GW680191X]             75%
 3  O=C1Nc2ccccc2/C1=C1\CCc2cc(O)ccc21 [GR105659X]             85%
 4  O=C1Nc2ccc(C(=O)c3ccco3)cc2C1=Cc1cc(Cl)c(O)c(Cl)c1 [GW406108X]             74%
 5  COc1cc2ncn(-c3cc(OCc4ccccc4S(C)(=O)=O)c(C#N)s3)c2cc1OC [GSK319347A]             59%
 6  Fc1ccc(-c2ncn(C3CCNCC3)c2-c2ccnc(Oc3ccccc3)n2)cc1 [SB-239272]            100%
 7  COc1ccc(C2=C(N3CCc4ccccc43)C(=O)NC2=O)cc1 [SB-361058]            100%
 8  COc1cc(C=NNc2ncnc3c2cnn3Cc2ccccc2)ccc1O [GW643971X]             56%
 9  O=C(O[C@H]1CN[C@H](C#Cc2cc3ncnc(Nc4ccc5c(cnn5Cc5ccccc5)c4)c3s2)C1)N1CCOCC1 [GSK200398A]             52%
10  COc1cc2ncn(-c3cc(OCc4ccccc4C(F)(F)F)c(C(=O)N(C)C)s3)c2cc1OC [GSK1030062A]             68%
11  NC(=O)c1ccc(Oc2nccc(-c3c(-c4ccc(F)cc4)ncn3C3CCNCC3)n2)cc1 [SB-242718]             39%
12  CS(=O)(=O)Nc1cccc(-c2ccc3c(NC(=O)C4CC4)n[nH]c3c2)c1 [SB-742864]             64%
13  O=C1Nc2ccccc2/C1=C/Nc1ccc(-n2cncn2)cc1 [GW301789X]             64%
14  O=C(Nc1n[nH]c2nc(-c3ccco3)ccc12)C1CC1 [SB-743899]             84%
15  O=C(Nc1ccc(Oc2ccc3nc(NC(=O)c4ccco4)[nH]c3c2)cc1)Nc1cc(C(F)(F)F)ccc1F [GW683134A]             74%
16  CC(C)c1ccc(-c2cc(-c3c[nH]nc3-c3ccccn3)ccn2)cc1 [GW682841X]             78%
17  CS(=O)(=O)CCNCc1ccc(-c2ccc3ncnc(Nc4ccc(OCc5ccccc5)c(Cl)c4)c3c2)o1 [GW574783B]             58%

====

- measured target: E. coli MurF (Escherichia coli)
- Sequence (P11880 whole entry): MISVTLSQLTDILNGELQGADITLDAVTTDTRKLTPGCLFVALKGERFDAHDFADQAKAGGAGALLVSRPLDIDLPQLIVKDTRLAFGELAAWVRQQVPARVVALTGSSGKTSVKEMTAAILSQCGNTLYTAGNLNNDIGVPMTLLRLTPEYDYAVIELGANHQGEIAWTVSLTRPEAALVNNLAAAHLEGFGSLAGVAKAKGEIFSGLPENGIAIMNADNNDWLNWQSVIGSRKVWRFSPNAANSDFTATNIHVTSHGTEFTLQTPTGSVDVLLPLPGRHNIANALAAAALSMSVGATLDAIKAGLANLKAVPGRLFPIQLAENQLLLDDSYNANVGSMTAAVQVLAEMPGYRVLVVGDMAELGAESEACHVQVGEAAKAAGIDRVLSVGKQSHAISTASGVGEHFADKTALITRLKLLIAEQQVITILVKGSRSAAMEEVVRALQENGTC
- protocol: biochemical
- experimental parameters: 0.25 h, Table S1, PKIS screening; read-out: RA [%] at 100 µM MurF
experimental readout: remaining activity at 100 µM (%)

> print(dat)
                                   compound                  measured.target          experimental.readout  recorded.value
1  COc1cc(Nc2ncc(-c3ccccc3)o2)cc(OC)c1 [GW631581B]  E. coli MurF (Escherichia coli)  remaining activity at 100 µM              97
2    O=C(Nc1n[nH]c2cc(-c3ccccc3)ccc12)C1CC1  E. coli MurF (Escherichia coli)  remaining activity at 100 µM              86
3  COc1cc(/C=N/Nc2ncnc3c2cnn3C(C)C)ccc1O [GW644007X]  E. coli MurF (Escherichia coli)  remaining activity at 100 µM              78
4  COC(=O)c1cncc(/C=C/c2c(C)cc(O)cc2C)c1 [GW406731X]  E. coli MurF (Escherichia coli)  remaining activity at 100 µM              81
5  COc1ccc(-c2nn3ncccc3c2-c2ccnc(Nc3ccc4c(c3)OCCO4)n2)cc1 [GW827106X]  E. coli MurF (Escherichia coli)  remaining activity at 100 µM              49
6  COc1cc(Nc2ncc3c(C)nc(-c4cccc(C(F)(F)F)c4)n3n2)cc(OC)c1OC [GW837331X]  E. coli MurF (Escherichia coli)  remaining activity at 100 µM              89
7  COc1cccc(-c2c[nH]c3c(N/N=C/c4ccncc4)ncnc23)c1 [GW814408X]  E. coli MurF (Escherichia coli)  remaining activity at 100 µM              87
8  CN(c1ccc(NC(=O)Nc2c(Cl)cccc2Cl)cc1)c1ccnc(Nc2cccc(CS(C)(=O)=O)c2)n1 [GW809897X]  E. coli MurF (Escherichia coli)  remaining activity at 100 µM              51

====

Listed below: remaining activity at 100 µM values for each entry.
- measured target: E. coli MurC (Escherichia coli, UniProt P17952)
- Sequence (P17952 whole entry): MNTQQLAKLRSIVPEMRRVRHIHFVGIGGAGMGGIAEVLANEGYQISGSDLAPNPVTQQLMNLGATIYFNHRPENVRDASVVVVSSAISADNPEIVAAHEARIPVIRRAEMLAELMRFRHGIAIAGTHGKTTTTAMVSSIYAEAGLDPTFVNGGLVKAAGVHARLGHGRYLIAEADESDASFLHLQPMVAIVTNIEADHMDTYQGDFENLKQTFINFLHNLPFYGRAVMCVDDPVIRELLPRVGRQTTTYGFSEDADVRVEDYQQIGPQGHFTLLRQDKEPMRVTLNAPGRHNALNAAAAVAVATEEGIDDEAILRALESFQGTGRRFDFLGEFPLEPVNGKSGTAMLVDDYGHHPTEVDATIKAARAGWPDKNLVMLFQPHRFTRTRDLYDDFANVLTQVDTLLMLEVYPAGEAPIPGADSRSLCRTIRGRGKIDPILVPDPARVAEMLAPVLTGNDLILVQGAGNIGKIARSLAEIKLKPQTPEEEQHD
- protocol: Malachite green inhibition assay, MurC
- Assay type: biochemical
- experimental parameters: 0.25 h, Table S1, PKIS screening; read-out: RA [%] at 100 µM MurC
experimental readout: remaining activity at 100 µM (%)

> print(dat)
                                   compound  result.units  recorded.value
1  Cc1nnc(-c2ccc(C)c(-c3ccc(C(=O)Nc4cccc(C#N)c4)cc3)c2)o1 [GW607117X]             %              72
2  CCS(=O)(=O)c1ccc(OC)c(Nc2ncc(-c3cccc(C(C)=O)c3)o2)c1 [GW621431X]             %              68
3  CNC(=O)c1cncc(/C=C/c2ccccc2Cl)c1 [GW445017X]             %              68
4  COc1cccc(-n2ncc3c(N/N=C/c4ccc(F)cc4)ncnc32)c1 [GW817396X]             %              69

====

Items are presented alongside their recorded remaining activity at 100 µM.
- measured target: UniProt P14900
- protocol: biochemical
- experimental parameters: 0.25 h, Table S1, PKIS screening; read-out: RA [%] at 100 µM MurD
experimental readout: remaining activity at 100 µM (%)

> print(dat)
                                   compound  recorded.value
1  CCOc1ccc2c(-c3ccnc(Nc4cc(OC)cc(C(F)(F)F)c4)n3)cnn2n1 [GW807982X]              78
2  N#Cc1c(NC(=O)c2ccc(F)cc2)sc2c1CCCC2 [SB-347804]              78
3  COc1cc(C=NNc2ncnc3c2cnn3Cc2ccccc2)ccc1O [GW643971X]              78
4  c1ccc(-c2n[nH]cc2-c2ccnc(-c3ccc(OCCN4CCOCC4)cc3)c2)nc1 [GW695874X]              80

====

- measured target: E. coli MurF (Escherichia coli)
- protocol: biochemical
- experimental parameters: 0.25 h, Table S1, PKIS screening; read-out: RA [%] at 100 µM MurF
# remaining activity at 100 µM binned as bin 1 = under 80%, bin 2 = from 80% up to 90%, bin 3 = 90% and over

> print(dat)
                                   compound                  measured.target  class.name
1  NS(=O)(=O)c1ccc(NN=C2C(=O)Nc3ccc(C(=O)NCc4ccncc4)cc32)cc1 [GW300657X]  E. coli MurF (Escherichia coli)       bin 2
2  NS(=O)(=O)c1ccc(NN=C2C(=O)Nc3ccc(C(=O)NCCCn4ccnc4)cc32)cc1 [GW290597X]  E. coli MurF (Escherichia coli)       bin 3
3  COc1cc(N2CCN(C(C)C)CC2)ccc1Nc1nc(Nc2ccc(F)cc2C(N)=O)c2cc[nH]c2n1 [GSK1220512A]  E. coli MurF (Escherichia coli)       bin 1
4  C#Cc1cccc(Nc2ncnc3ccc(OCCCCNCCS(C)(=O)=O)cc23)c1 [GW680191X]  E. coli MurF (Escherichia coli)       bin 3
5  NS(=O)(=O)c1cccc(-c2cc3ccncc3cc2OCc2ccccc2)c1 [GSK980961A]  E. coli MurF (Escherichia coli)       bin 1
6  O=S(=O)(CCNCc1ccc(-c2ccc3ncnc(Nc4ccc(OCc5cccc(F)c5)c(Cl)c4)c3c2)o1)c1ccccc1 [GW633459A]  E. coli MurF (Escherichia coli)       bin 2
7  N#Cc1ccc(Oc2nccc(-c3c(-c4ccc(F)cc4)ncn3C3CCNCC3)n2)cc1 [Compound 4]  E. coli MurF (Escherichia coli)       bin 1
